target: T1, gH/gL/UL128/UL130/UL131A pentamer complex expressed from MVA-PC in BHK-21 cells (human cytomegalovirus, UniProt P12824 24-743; P16832 31-278; P16837 28-171; P16772 1-214; F5HET4 19-129); assay: FC competition, MVA-PC BHK-21; unlabelled row Ab; competitor: biotinylated AP86; note: test concentration or dose not given here
T1 construct: whole, on cells
Collected Binding Inhibition (%) values appear next to each entry.

binder: 2-80 (antibody, V domains shown, also called NAb 2-80) VH: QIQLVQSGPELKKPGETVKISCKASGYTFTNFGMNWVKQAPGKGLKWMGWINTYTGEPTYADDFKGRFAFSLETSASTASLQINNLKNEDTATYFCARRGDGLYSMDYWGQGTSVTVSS VL: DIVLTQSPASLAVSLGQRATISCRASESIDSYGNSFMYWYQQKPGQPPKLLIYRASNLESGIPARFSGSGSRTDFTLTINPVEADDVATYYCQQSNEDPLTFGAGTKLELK
Binding Inhibition (%): 0
//
binder: 62-100 (antibody, V domains shown, also called NAb 62-100) VH: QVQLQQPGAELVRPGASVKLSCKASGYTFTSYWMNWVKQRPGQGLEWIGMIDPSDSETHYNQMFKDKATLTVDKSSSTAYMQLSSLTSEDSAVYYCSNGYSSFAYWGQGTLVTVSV VL: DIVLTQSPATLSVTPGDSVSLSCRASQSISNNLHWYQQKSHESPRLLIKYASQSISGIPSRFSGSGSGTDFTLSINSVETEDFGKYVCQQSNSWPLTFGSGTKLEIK
Binding Inhibition (%): 0
//
binder: 62-11 (antibody, V domains shown, also called NAb 62-11) VH: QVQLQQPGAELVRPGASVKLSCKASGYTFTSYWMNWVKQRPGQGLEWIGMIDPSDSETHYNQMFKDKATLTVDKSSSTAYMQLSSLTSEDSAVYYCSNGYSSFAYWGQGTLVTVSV VL: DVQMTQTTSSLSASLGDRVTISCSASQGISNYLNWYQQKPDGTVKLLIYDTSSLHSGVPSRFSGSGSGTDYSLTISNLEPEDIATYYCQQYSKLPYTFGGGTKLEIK
Binding Inhibition (%): 0
//
binder: 18F10 (antibody, V domains shown, also called NAb 18F10) VH: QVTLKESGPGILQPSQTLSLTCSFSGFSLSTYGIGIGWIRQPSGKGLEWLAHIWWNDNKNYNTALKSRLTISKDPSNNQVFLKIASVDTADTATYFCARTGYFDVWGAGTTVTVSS VL: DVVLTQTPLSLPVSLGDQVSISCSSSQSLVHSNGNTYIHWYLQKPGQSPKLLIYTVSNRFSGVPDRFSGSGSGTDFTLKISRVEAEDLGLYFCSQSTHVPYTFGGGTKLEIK
Binding Inhibition (%): 100
